In this section, each of the molecules is paired with its reported Dmax at 0.03 µM.
# ASSAYED TARGET: NPM-ALK fusion protein (Homo sapiens, UniProt Q9UM73)
# Construct: endogenous in cells; host or cells: SU-DHL-1; the other entry of the earlier key: NPM1 (P06748, Nucleophosmin)
# Sequence (Q9UM73 with tags, fused parts or gaps): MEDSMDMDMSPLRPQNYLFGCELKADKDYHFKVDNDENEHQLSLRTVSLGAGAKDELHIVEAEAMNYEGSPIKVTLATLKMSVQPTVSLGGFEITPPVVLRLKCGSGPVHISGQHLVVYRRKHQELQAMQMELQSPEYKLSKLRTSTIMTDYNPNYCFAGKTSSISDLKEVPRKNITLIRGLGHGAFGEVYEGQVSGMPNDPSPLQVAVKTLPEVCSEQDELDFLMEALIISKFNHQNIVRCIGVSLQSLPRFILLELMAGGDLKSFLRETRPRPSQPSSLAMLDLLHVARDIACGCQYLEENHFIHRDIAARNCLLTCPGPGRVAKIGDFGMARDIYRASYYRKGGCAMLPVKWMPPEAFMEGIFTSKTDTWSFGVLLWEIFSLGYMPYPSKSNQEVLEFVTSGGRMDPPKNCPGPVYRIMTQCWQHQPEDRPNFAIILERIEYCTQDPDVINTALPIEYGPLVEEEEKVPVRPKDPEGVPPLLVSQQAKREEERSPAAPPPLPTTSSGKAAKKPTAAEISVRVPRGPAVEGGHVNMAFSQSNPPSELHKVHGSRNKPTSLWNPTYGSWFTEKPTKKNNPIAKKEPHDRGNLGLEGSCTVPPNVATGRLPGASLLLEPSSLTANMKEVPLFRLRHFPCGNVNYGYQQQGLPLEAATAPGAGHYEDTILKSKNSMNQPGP
# ASSAY: Western blot of NPM-ALK fusion protein levels in SU-DHL-1 cells
# Assay type: cell-based
# REPORTED CONDITIONS: SU-DHL-1 cells, 30 nM, Western blot; read-out: ALK fusion protein degradation, SU-DHL-1 (30 nM)

IN: # Dmax at 0.03 µM lookup, item Cc1cc(Nc2ncc(Cl)c(Nc3ccccc3S(=O)(=O)C(C)C)n2)c(OC(C)C)cc1C1CCN(CC(=O)NCCOCCOCCOCCOCCNc2cccc3c2C(=O)N(C2CCC(=O)NC2=O)C3=O)CC1 (stereo not shown)
OUT: > 80%

IN: What measured Dmax at 0.03 µM goes with Cc1cc(Nc2ncc(Cl)c(Nc3ccccc3S(=O)(=O)C(C)C)n2)c(OC(C)C)cc1C1CCN(CC(=O)NCCNc2cccc3c2C(=O)N(C2CCC(=O)NC2=O)C3=O)CC1 (stereo not shown) ?
OUT: > 80%
